Test system: MALME-3M melanoma
test.summary: NCI-60 one-dose screen, 48 h
test.parameters: 10 µM unless noted
The panel holds about 83,000 compounds, 20% with a hit somewhere; the sample as a whole holds those more often. Calls of active or inactive are those of the source. The calls were made as follows: active = growth percent below 10; inactive = the rest.
I would appreciate it if you answered using one of these outcomes: active, inactive

Query :: Look up the recorded call for CC1=C([Se]CC(OC(=O)CC[Se]c2ccccc2)C(=O)NC(C)(C)C)C(=O)c2ccccc2C1=O (centres undefined) in this test.
Result :: active

Query :: Recorded call for COc1ccc(-c2nn(-c3cccc(Cl)c3)cc2-c2cc(-c3ccc(Br)cc3)nc(N)n2)cc1 ?
Result :: inactive

Query :: // outcome(item) with item = COc1cc(C2c3cc(OC(C)=O)c(OC)cc3CC3C(=O)OCC32)ccc1OC(C)=O (centres undefined)
Result :: inactive

Query :: For O=S(=O)(Nc1cc(F)cc(Cl)c1)c1ccc(-c2cnc(C3CC3)o2)cc1 , what call appears in the results of this test?
Result :: inactive

Query :: What call does the record list for CCN1C(=S)N(c2ccccc2)C2NC(=S)N(/N=C/C=C/c3ccccc3OC)C21 (centres undefined) ?
Result :: inactive

Query :: Lab log entry: COc1ccc(-c2nc3cc(C(=O)NCc4ccccc4)ccc3n2C2CCCCC2)cc1 — outcome as called in the assay?
Result :: inactive

Query :: Outcome logged for c1ccc([P+](c2ccccc2)(c2ccccc2)c2ccc3c4ccc([P+](c5ccccc5)(c5ccccc5)c5ccccc5)c5cccc(c6cccc2c63)c54)cc1 in this assay:
Result :: active

Query :: Recorded test outcome, item C=CCn1c(C)nc2ccc(Nc3nc(Nc4ccc5nc(C)n(CC=C)c5c4)c4ccccc4n3)cc21
Result :: active

Query :: Could you check what this test reported for C=C1C(=O)O[C@H]2[C@H]1CC/C(Cn1cc(-c3ccccc3)nn1)=C\CC[C@@]1(C)O[C@@H]21 ?
Result :: active

Query :: // return assay outcome for CC(C)c1ccc(Cc2cnc(NC(=O)c3cc(Br)cs3)s2)cc1
Result :: inactive

Query :: Could you please tell me the result logged for CCN(CC)S(=O)(=O)c1ccc(S(=O)(=O)N2CCC[C@@H](C(=O)N3CCN(c4nc(C(C)C)no4)CC3)C2)cc1 in this assay?
Result :: inactive

Query :: What classification did COc1c(B(O)O)cccc1-c1cc(C)c2c(ccc3[nH]ncc32)n1 end up with in this test?
Result :: inactive

Query :: Hello, I am checking results. What call was entered for c1cnc2c(-c3nc4ccc5[nH]ncc5c4c4c3CCCC4)c[nH]c2c1 ?
Result :: inactive

Query :: How did this test come out for O=c1c2ccccc2n2cnc3ccc(Cl)c1c32 ?
Result :: inactive

Query :: Status in this test for Cc1cn(-c2cc(NC(=O)c3cccc(C#Cc4cccc5[nH]nc(N)c45)c3)cc(C(F)(F)F)c2)cn1 ?
Result :: inactive

Query :: Test call, this compound: O=C(Nc1ccc(Oc2cccc(Cl)c2)c(Cl)c1)c1cnccn1
Result :: inactive

Query :: // return assay outcome for N#Cc1ccc(O)c(C2=NCC(c3ccccc3)O2)c1 (centres undefined)
Result :: inactive

Query :: How did this test come out for O=C(CSc1nnc(-c2cnccn2)n1-c1ccccc1)c1ccc(Cl)cc1 ?
Result :: inactive

Query :: Any idea what this test logged for Nc1c(C(=O)Nc2ccccc2C(F)(F)F)sc2nc3c(cc12)CCC3 ?
Result :: inactive
